method.description: NCI Yeast Anticancer Drug Screen. Data for the rad50 strain (AID 155);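 further: 0% = growth of vehicle-only cultures of the same strain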
run.conditions: S. cerevisiae rad50 strain growth inhibition; at 50.0 µM (retest, dose inferred, filed as 5.0)
About 79,000 compounds went through this panel and 15% of them were active in at least one assay; those are over-represented in the sample as a whole. Active and inactive are the calls of the source. No stated cut-off is given here; in the data, active means growth inhibition above about 70%; inactive means the rest.
Log the outcome using a class from 1 (yes) (active), 0 (no) (inactive)

Test call for this compound, please: Cc1ccc(S(=O)(=O)NNC(C[N+](=O)[O-])c2ccccc2)cc1 (stereo unspecified) 1 (yes)

Queued: `Clc1ccc(SSN2CCOCC2)cc1` 1 (yes)

Same read-out for OCC1(c2ccccc2)OC1c1ccccc1 (stereo unspecified) ? 0 (no)

Subsequent entry: C#CCCOC(=O)CC1=C(C)/C(=C/c2ccc(S(C)=O)cc2)c2ccc(F)cc21 (stereo unspecified) 1 (yes)

Now the same for `C=C(C)CCC(=C)C` 1 (yes)

Try `Nc1ccc(N=Nc2ccccc2)c2ccccc12` next. 1 (yes)

Now the compound `COc1ccc(-c2cn(-c3ccccc3)c3ncnc(N)c23)cc1` 0 (no)

* * *

What growth inhibition was measured for each of the following?
method.description: NCI Yeast Anticancer Drug Screen. Data for the rad50 strain (AID 155);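 further: 0% = growth of vehicle-only cultures of the same strain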
run.conditions: S. cerevisiae rad50 strain growth inhibition; at 5.0 µM (retest, dose inferred, filed as 0.5); stronger effect = higher value
This is part of a sample that, as a whole, favours compounds with a hit. Of some 79,000 tested, about 15% had one in any assay. Calls of active or inactive are those of the source. Rule as the data show it: active = growth inhibition above about 70%; inactive = the rest.

>  <compound>
Cn1c(=O)c2c(nc(OCC(C)(C)C)n2C)n(C)c1=O

>  <reading>
4% (inactive)

$$$$
>  <compound>
CC1OC(Oc2c(-c3ccc(O)c(O)c3O)oc3cc(O)ccc3c2=O)C(O)C(O)C1O (centres undefined)

>  <reading>
-4% (inactive)

$$$$

Provide reported growth inhibition for each item, in the same order as listed.
1. COC12C(COC(N)=O)C3=C(C(=O)C(C)=C(N)C3=O)N1CC1C2N1C(=O)c1ccc(Cl)c(Cl)c1 (centres undefined)
2. O=C(SC(O)c1ccc(Cl)cc1)c1ccccc1 (centres undefined)
3. C=CC(=C)OC
4. Cc1ccc(S(=O)(=O)OC(COC(=O)c2ccc([N+](=O)[O-])cc2)C2OC(C)(C)OC2C(SCc2ccccc2)SCc2ccccc2)cc1 (centres undefined)
5. COc1nc2c(ccn2C2OC(COC(C)=O)C(OC(C)=O)C(OC(C)=O)C2OC(C)=O)c(=O)n1C (centres undefined)

32% (inactive)
-7% (inactive)
0% (inactive)
4% (inactive)
2% (inactive)

Each compound below has a reported value. Please supply its growth inhibition.
1. NCc1ccccc1-c1c2nc(c(-c3ccccc3CN)c3ccc([nH]3)c(-c3ccccc3CN)c3nc(c(-c4ccccc4CN)c4ccc1[nH]4)C=C3)C=C2
2. O=c1[nH]c2c([N+](=O)[O-])cc(Cl)cc2nc1/C=C(\O)c1ccc(F)cc1

1: 41% (inactive); 2: 12% (inactive)

* * *

method.description: NCI Yeast Anticancer Drug Screen. Data for the mec2-1 strain (AID 157)
run.conditions: S. cerevisiae mec2-1 strain, at 5.0 µM (retest, dose inferred, filed as 0.5), stronger effect = higher value
Method: Growth inhibition of yeast strains with defined genetic alterations is measured as a screen for potential anti-cancer activity. Selected strains with alterations in DNA damage repair or cell cycle control were exposed to compounds and growth inhibition was measured relative to vehicle treated controls. The strain used in this assay is mec2-1
This is part of a sample that, as a whole, favours compounds with a hit. Of some 79,000 tested, about 15% had one in any assay.
readout.label: growth inhibition (%)
Numbers only, in %.

# annotated cases, reported growth inhibition shown
>  <molecule>
O=C(Nc1ccccc1C(=O)O)c1ccccc1

>  <readout.label>
growth inhibition

>  <reading>
2

$$$$
>  <molecule>
COc1ccc2ccccc2c1Cc1c(OC)ccc2ccccc12

>  <readout.label>
growth inhibition

>  <reading>
-2

$$$$
>  <molecule>
Cc1cc(=O)[nH]c(NN2C(Cl)C(=O)C2c2ccc(O)cc2)n1 (centres undefined)

>  <readout.label>
growth inhibition

>  <reading>
-9

$$$$

Provide each entry's growth inhibition from the list below.
1. CCC1CCC(CC)C1O (centres undefined)
2. COC(=O)c1ccc(C)cc1C1CN=NC12Cc1cccc(C)c1C2=O (centres undefined)
3. O=S(=O)(Nc1ccccc1C(F)(F)F)c1ccc(F)cc1
4. CCC(C)N(C(=O)c1ccccc1)c1ccccc1 (centres undefined)
5. CN1COc2c(Cl)cc(Cl)cc2C1
6. CC(C)(C)c1ccc(C(C)(C)C)cc1
7. CC(c1ccccc1)c1cc(C(C)(C)C)ccc1O (centres undefined)
8. O=[N+]([O-])c1cc(NC(=S)SCc2ccccc2)ccc1Cl

1: 0; 2: -1; 3: 6; 4: 1; 5: -2; 6: -5; 7: -25; 8: 74

State recorded growth inhibition for all listed molecules.
1. CCCCCc1cc(Cl)cc(Cl)c1O
2. CCCC(C)OC(=O)Nc1cccc(Cl)c1 (centres undefined)
3. CC(C)CCCC(O)CNCc1ccccc1 (centres undefined)
4. CCOC(=O)Cc1nc2ccccc2s1
5. Cc1ccc(S(=O)(=O)OCC2OC(c3ccccc3)OC3C(CO)OC(c4ccccc4)OC23)cc1 (centres undefined)

1: -23; 2: -4; 3: 17; 4: 2; 5: 0

Quick one: give me growth inhibition for each item below, same order please.
1. Cc1cc(C(O)(c2cc(C)c(O)c(C(=O)O)c2)c2cc(C)c(O)c(C(=O)O)c2)cc(C(=O)O)c1O
2. COC(O)C(=O)c1ccc2c(c1)CC1(C2)Cc2cc3c(cc2C1=O)CCC3 (centres undefined)
3. O=C1OC(=O)C2C(c3ccccc3)=C(c3ccccc3)C(c3ccccc3)=C(c3ccccc3)C12 (centres undefined)
4. O=P(O)(CN1CCN(CP(=O)(O)c2ccccc2)CCN(CP(=O)(O)c2ccccc2)CC1)c1ccccc1
5. CC(C)(C)[Si](C)(C)OCC1OC(n2cnc3c(NC(=O)c4ccccc4)ncnc32)CC1O (centres undefined)

[2, 40, 35, 4, -2]

* * *

method.description: NCI Yeast Anticancer Drug Screen. Data for the rad50 strain (AID 155);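 further: 0% = growth of vehicle-only cultures of the same strain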
run.conditions: S. cerevisiae rad50 strain growth inhibition; at 5.0 µM (retest, dose inferred, filed as 0.5); stronger effect = higher value
This is part of a sample that, as a whole, favours compounds with a hit. Of some 79,000 tested, about 15% had one in any assay.
readout.label: growth inhibition (%)
Numbers only, in %.

For every listed record, write down its growth inhibition.
1. O=C(C1=NNC(c2ccccc2)C1C(=O)c1ccccc1)c1ccccc1 (centres undefined)
2. CCCN(CCC)C(=O)C(C)C
3. Cc1ccc(S(=O)(=O)NC2(C=O)CCC(C(C)(C)C)CC2)cc1 (centres undefined)
4. O=C1C(Cl)=C(Nc2ccc(S(=O)(=O)Nc3ccccn3)cc2)C(=O)c2ccccc21
5. Cc1ccc(SCc2ccc(Cl)cc2Cl)nn1

[-1, 1, 15, 99, -1]

* * *

method.description: NCI Yeast Anticancer Drug Screen. Data for the rad50 strain (AID 155);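 further: 0% = growth of vehicle-only cultures of the same strain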
run.conditions: S. cerevisiae rad50 strain growth inhibition; at 50.0 µM (retest, dose inferred, filed as 5.0); stronger effect = higher value
The panel holds about 79,000 compounds, 15% with a hit somewhere; the sample as a whole holds those more often.
Record form. Attribute: growth inhibition. Fill in for each entry.
Give bare numbers, in %.

Answered cases to consult:
>  <molecule>
CCCCCCCCCCCCCCCCCCOC(=O)C(N)CCCCN (stereo unspecified)

>  <unit.of.measurement>
%

>  <growth inhibition>
98

$$$$
>  <molecule>
C[N+](C)(C)CC(=O)N/N=C(\C(=O)NC1=C(Cl)C(=O)c2ccccc2C1=O)C(C#N)c1nc(-c2ccc([N+](=O)[O-])cc2)cs1 (stereo unspecified)

>  <unit.of.measurement>
%

>  <growth inhibition>
98

$$$$
>  <molecule>
Cc1cc(=O)n(-c2cc3cccccc-3n2)[nH]1

>  <unit.of.measurement>
%

>  <growth inhibition>
96

$$$$
>  <molecule>
C=C1C(=O)OC2CC3(C)CC(O)C(O)C(=C)C3CC12 (stereo unspecified)

>  <unit.of.measurement>
%

>  <growth inhibition>
6

$$$$

Look at each molecule and report its growth inhibition.
1. C(=C\c1cnnc2ccccc12)/c1cccnc1
2. BrCc1ccc([Si](c2ccccc2)(c2ccccc2)c2ccc(CBr)cc2)cc1
3. O=C(O)c1ccccc1C(c1ccccc1)c1ccccc1
4. CCCN1CSC(=S)N(CCC)C1

1. 45
2. -16
3. 62
4. 92

Can you give me growth inhibition for all of these, one by one?
1. CCOC(=O)c1cccc(C)c1C(=O)c1ccc(C)cc1C
2. CCn1c2ccc(N)cc2c2c(N)c(-n3cccc3)ccc21
3. CCCOC(=O)COc1ccccc1C(=O)OCCC

[66, 61, 10]

* * *

Assign growth inhibition to each entry below.
method.description: NCI Yeast Anticancer Drug Screen. Data for the cln2 rad14 strain (AID 165);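 further: 0% = growth equal to vehicle treated cultures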
run.conditions: S. cerevisiae cln2 rad14 strain, at 50.0 µM (retest, dose inferred, filed as 5.0), stronger effect = higher value
The panel holds about 79,000 compounds, 15% with a hit somewhere; the sample as a whole holds those more often.
Answers are plain numbers, in %.

>  <molecule>
CC1=NOC(=O)/C1=C/c1ccc(Cl)c(Cl)c1

>  <reading>
61

$$$$
>  <molecule>
CC(=O)Nc1ccc2c(c1)C(=Nc1ccc(F)cc1)c1ccccc1-2

>  <reading>
74

$$$$
>  <molecule>
Cc1c2cc[n+](C)cc2c(C)c2c1[nH]c1ccc(Cl)cc12

>  <reading>
98

$$$$
>  <molecule>
C(=C\c1ccc(-[n+]2nc(-c3ccccc3)nn2-c2ccccc2)cc1)/c1ccccc1

>  <reading>
99

$$$$
>  <molecule>
C=C(C)/C([O-])=N/[N+](C)(C)CC(O)CCCCCCCCCCCC (configuration not stated)

>  <reading>
99

$$$$

Kindly give each listed record's growth inhibition.
1. O=C1CN=C(c2ccccc2)N(c2ccccc2)N1
2. O=C(NCCCN1CCN(CCCNC(=O)c2cc(-c3ccccc3)nc3ccccc23)CC1)c1cc(-c2ccccc2)nc2ccccc12

[93, 41]

For every item below, please supply its growth inhibition.
1. Cc1ccc(N=C2SC(=S)N(CCC[N+](C)(C)C)C2=Nc2ccc(C)cc2)cc1
2. Cc1c(Cl)c(Cl)cc([N+](=O)[O-])c1Cl

1: 99; 2: 47

Return reported growth inhibition values for all items listed beneath this line.
1. Cc1cc(NC(=S)SCc2ccc3c(c2)OCO3)ccc1Cl
2. CC(=O)N1CCCC2=C1CCCCCCCCCC2
3. CC/C(=N\OC(=O)Nc1ccccc1)c1ccc(OC(=O)Nc2ccccc2)cc1
4. CCCCCc1cc(Cl)cc(Cl)c1O
5. C=C(C)C1(C(=O)OCC(Cl)(Cl)Cl)NC(=O)C(NC(=O)COc2ccccc2)=CO1 (configuration not stated)
6. O=S(c1ccccc1)c1c(Cl)c(Cl)nc(Cl)c1Cl (configuration not stated)
7. Cn1sc2ccccc2c1=S

1. 98
2. -9
3. 7
4. -6
5. 31
6. 99
7. 98

Hi! Can you tell me growth inhibition for each of these molecules?
1. c1ccc([P+](C[P+](c2ccccc2)(c2ccccc2)c2ccccc2)(c2ccccc2)c2ccccc2)cc1
2. c1ccc2c(c1)CCCc1cc3ccccc3nc1-2
3. Cc1ccc(OC/C=C/c2cccc(C#N)c2)cc1
4. O=S1(=O)C(Br)=Cc2ccccc21
5. Cc1cc(NS(=O)(=O)c2ccc(NCc3c4ccccc4nc4cc(Cl)ccc34)cc2)no1

1. 99
2. 96
3. -11
4. 99
5. 97
